Molecular target: human CA9 (carbonic anhydrase IX) (human, UniProt Q16790 38-414)
Test: BIAcore T100, mAb captured on anti-human IgG, antigen as analyte, 1:1 model; mAb purified by protein A (ProA)
METRIC_NAME: koff

Look at this binder and give its reported koff. zu155D5-1 (antibody, human IgG1, kappa, V domains shown, Humanized 155D5, human IgG1 kappa; Tested both protein A purified (Cys80 capped) and decapped; also called zu155D5-CXXF; zu155D5-1 (huVK1-5)) VH: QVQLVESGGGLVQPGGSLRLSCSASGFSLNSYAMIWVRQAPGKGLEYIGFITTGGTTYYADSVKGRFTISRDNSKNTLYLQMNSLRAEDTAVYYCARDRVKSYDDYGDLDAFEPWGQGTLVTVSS VL: DIQMTQSPSTLSASVGDRVTITCQASQSISSYLAWYQQKPGKAPKLLIYYASTLASGVPSRFSGSGSGTEFTLTISSLQCDDFATYYCLGVYGYSFDDGIAFGGGTKVEIKR
0.000495 s⁻¹
